- target-of-assay: human Fc (human)
- experiment-summary: ELISA; negative control
readout-name: optical density

Endpoint output: optical density of 374_H09 (antibody, V domains shown) VH: EVQLLESGGGLVQPGGSLRLSCAASGFTFSSYSMNWVRQAPGKGLEWVANINYNSGYKSYADSVKGRFTISRDNSKNTLYLQMNSLRAEDTAVYYCARSANWHDTALDYWGQGTLVTVSS VL: DIQMTQSPSSLSASVGDRVTITCRASQSILSYLNWYQQKPGKAPKLVIYAVTSLASGVPSRFSGSGSGTDFTLTISSLQPEDFATYYCQQSYDLPLTFGGGTKVEIK . Value? 0.158 OD

Endpoint output: optical density of 374_F02 (antibody, V domains shown) VH: EVQLLESGGGLVQPGGSLRLSCAASGFTFDSYSMNWVRQAPGKGLEWVANINYNSGYTSYADSVKGRFTISRDNSKNTLYLQMNSLRAEDTAVYYCARSANWHDTALDYWGQGTLVTVSS VL: DIQMTQSPSSLSASVGDRVTITCRASQSIVSYLNWYQQKPGKAPKLLIYAASSLQSGVPSRFSGSGSGTDFTLTISSLQPEDFATYYCQQSYELPLTFGGGTKVEIK . Value? 0.169 OD

Endpoint output: optical density of 375_B04 (antibody, V domains shown) VH: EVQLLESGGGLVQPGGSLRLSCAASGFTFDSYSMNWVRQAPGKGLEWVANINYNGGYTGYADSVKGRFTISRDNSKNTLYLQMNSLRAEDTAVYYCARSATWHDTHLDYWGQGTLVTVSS VL: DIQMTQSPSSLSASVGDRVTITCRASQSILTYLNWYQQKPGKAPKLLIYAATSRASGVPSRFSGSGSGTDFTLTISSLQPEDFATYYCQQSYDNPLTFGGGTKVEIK . Value? 0.19 OD
